Record form. Attribute: pKd. Fill in for each entry.
biological target: GAL-3C (Homo sapiens); experiment: COIN-nMS with a mixture of ten glycans (G2, G5-G13), 200 mM ammonium acetate, pH 6.9.; assay type: binding; set-up: gene LGALS3; C-terminal carbohydrate recognition domain fragment, residues 107-250; settings: SD, n = 8; read-out: Kd (COIN-nMS), Table S3
Convention used: pKd is expressed as -log10 of the molar concentration.

The reported pKd value, GAL-3C (Homo sapiens), for CC(=O)N[C@H]1[C@H](O[C@H]2[C@@H](O)[C@@H](CO)O[C@@H](O[C@H]3[C@H](O)[C@@H](NC(C)=O)[C@H](O[C@H]4[C@@H](O)[C@@H](CO)O[C@@H](O[C@H]5[C@H](O)[C@@H](O)C(O)O[C@@H]5CO)[C@@H]4O)O[C@@H]3CO)[C@@H]2O)O[C@H](CO)[C@@H](O[C@@H]2O[C@H](CO)[C@H](O)[C@H](O)[C@H]2O)[C@@H]1O (some centres unmarked) [G7] reads 5.54

The reported pKd value, GAL-3C (Homo sapiens), for CC(=O)N[C@H]1[C@H](O[C@H]2[C@@H](O)[C@@H](CO)O[C@@H](O[C@H]3[C@H](O[C@@H]4O[C@@H](C)[C@@H](O)[C@@H](O)[C@@H]4O)[C@@H](O)C(O)O[C@@H]3CO)[C@@H]2O)O[C@H](CO)[C@@H](O)[C@@H]1O[C@@H]1O[C@H](CO)[C@H](O)[C@H](O)[C@H]1O (some centres unmarked) [G6] reads 3.99

====

target: GAL-7 (Homo sapiens, UniProt P47929); construct: gene LGALS7; homodimer (monomer MW 14.94 kDa); assay: Direct native ESI-MS of the GAL-7 homodimer with a mixture of ten glycans (G2, G5-G13), 200 mM ammonium acetate, pH 6.9.; assay type: binding; conditions: SD, n = 8; read-out: Kd (nMS), Table S4
Sequence (P47929 whole entry): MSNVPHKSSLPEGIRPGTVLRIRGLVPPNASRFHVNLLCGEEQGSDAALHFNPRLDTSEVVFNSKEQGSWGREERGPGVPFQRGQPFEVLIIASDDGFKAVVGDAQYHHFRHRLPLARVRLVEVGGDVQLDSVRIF
READOUT_LABEL: pKd
Convention used: pKd is expressed as -log10 of the molar concentration.

Sample CC(=O)N[C@H]1[C@@H](O[C@H]2[C@@H](O)[C@@H](CO)O[C@@H](O[C@H]3[C@H](O)[C@@H](NC(C)=O)C(O)O[C@@H]3CO)[C@@H]2O[C@@H]2O[C@@H](C)[C@@H](O)[C@@H](O)[C@@H]2O)O[C@H](CO)[C@H](O)[C@@H]1O (some centres unmarked) [G10] ; pKd observed: 3.14

Sample CC(=O)N[C@H]1[C@@H](O[C@H]2[C@@H](O)[C@@H](CO)O[C@@H](O[C@H]3[C@H](O)[C@@H](O)C(O)O[C@@H]3CO)[C@@H]2O[C@@H]2O[C@@H](C)[C@@H](O)[C@@H](O)[C@@H]2O)O[C@H](CO)[C@H](O)[C@@H]1O (some centres unmarked) [G12] ; pKd observed: 3.73

Sample CC(=O)N[C@H]1[C@H](O[C@H]2[C@@H](O)[C@@H](CO)O[C@@H](O[C@H]3[C@H](O)[C@@H](NC(C)=O)[C@H](O[C@H]4[C@@H](O)[C@@H](CO)O[C@@H](O[C@H]5[C@H](O)[C@@H](O)C(O)O[C@@H]5CO)[C@@H]4O)O[C@@H]3CO)[C@@H]2O)O[C@H](CO)[C@@H](O[C@@H]2O[C@H](CO)[C@H](O)[C@H](O)[C@H]2O)[C@@H]1O (some centres unmarked) [G7] ; pKd observed: 3.46

Sample C[C@@H]1O[C@@H](O[C@H]2[C@H](O[C@H]3[C@H](O)[C@@H](O)C(O)O[C@@H]3CO)O[C@H](CO)[C@H](O)[C@@H]2O)[C@@H](O)[C@H](O)[C@@H]1O (some centres unmarked) [G2] ; pKd observed: 3.62

Sample CC(=O)N[C@H]1[C@H](O[C@H]2[C@@H](O)[C@@H](CO)O[C@@H](O[C@H]3[C@H](O[C@@H]4O[C@@H](C)[C@@H](O)[C@@H](O)[C@@H]4O)[C@@H](O)C(O)O[C@@H]3CO)[C@@H]2O)O[C@H](CO)[C@@H](O)[C@@H]1O[C@@H]1O[C@H](CO)[C@H](O)[C@H](O)[C@H]1O (some centres unmarked) [G6] ; pKd observed: 3.63

====

biological target: GAL-3C (Homo sapiens, UniProt P17931); experiment: COIN-nMS with a mixture of ten glycans (G2, G5-G13), 200 mM ammonium acetate, pH 6.9.; assay type: binding; parameters: gene LGALS3; C-terminal carbohydrate recognition domain fragment, residues 107-250; details: SD, n = 8; read-out: Kd (COIN-nMS), Table S3
Sequence (P17931 107-250): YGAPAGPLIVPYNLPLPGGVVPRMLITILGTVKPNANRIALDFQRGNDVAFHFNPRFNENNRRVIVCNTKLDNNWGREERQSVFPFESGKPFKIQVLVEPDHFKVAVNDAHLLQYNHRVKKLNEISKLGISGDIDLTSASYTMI
READOUT_LABEL: Kd (µM)
Kindly answer with a numeric value in µM, unit omitted.

Sample CC(=O)N[C@H]1[C@H](O[C@H]2[C@@H](O)[C@@H](CO)O[C@@H](O[C@H]3[C@H](O)[C@@H](NC(C)=O)[C@H](O[C@H]4[C@@H](O)[C@@H](CO)O[C@@H](O[C@H]5[C@H](O)[C@@H](NC(C)=O)[C@H](O[C@H]6[C@@H](O)[C@@H](CO)O[C@@H](O[C@H]7[C@H](O)[C@@H](O)C(O)O[C@@H]7CO)[C@@H]6O)O[C@@H]5CO)[C@@H]4O)O[C@@H]3CO)[C@@H]2O)O[C@H](CO)[C@@H](O[C@@H]2O[C@H](CO)[C@H](O)[C@H](O)[C@H]2O)[C@@H]1O (stereo partly shown) ; Kd observed: 5.8

Sample CC(=O)N[C@H]1[C@@H](O[C@H]2[C@@H](O)[C@@H](CO)O[C@@H](O[C@H]3[C@H](O)[C@@H](NC(C)=O)C(O)O[C@@H]3CO)[C@@H]2O[C@@H]2O[C@@H](C)[C@@H](O)[C@@H](O)[C@@H]2O)O[C@H](CO)[C@H](O)[C@@H]1O (stereo partly shown) ; Kd observed: 10.9

Sample CC(=O)N[C@H]1[C@H](O[C@H]2[C@@H](O)[C@@H](CO)O[C@@H](O[C@H]3[C@H](O)[C@@H](O)C(O)O[C@@H]3CO)[C@@H]2O)O[C@H](CO)[C@@H](O[C@@H]2O[C@H](CO)[C@H](O)[C@H](O)[C@H]2O)[C@@H]1O (stereo partly shown) ; Kd observed: 12.9

Sample C[C@@H]1O[C@@H](O[C@H]2[C@H](O[C@H]3[C@H](O)[C@@H](O)C(O)O[C@@H]3CO)O[C@H](CO)[C@H](O)[C@@H]2O)[C@@H](O)[C@H](O)[C@@H]1O (stereo partly shown) ; Kd observed: 156

====

Record form. Attribute: pKd. Fill in for each entry.
Target: DC-SIGN CRD (Homo sapiens)
Sequence (Q9NNX6 250-404): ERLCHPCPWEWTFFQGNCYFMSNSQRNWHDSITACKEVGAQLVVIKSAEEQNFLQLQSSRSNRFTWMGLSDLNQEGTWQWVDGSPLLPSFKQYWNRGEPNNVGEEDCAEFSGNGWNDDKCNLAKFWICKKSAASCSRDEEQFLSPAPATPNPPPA
Experiment: Direct native ESI-MS (submicron emitters) with a mixture of ten glycans (G2, G5, G10, G14-G20), 200 mM ammonium acetate with 2.5 mM calcium salt, pH 7.4.
Type: binding
Set-up: gene CD209; carbohydrate recognition domain, residues 250-404, MW 17 794 Da
Conditions: SD, n = 6; read-out: Kd (nMS), Table S5
Convention used: pKd is expressed as -log10 of the molar concentration.

Sample CC(=O)N[C@H]1[C@@H](O[C@H]2[C@@H](O)[C@@H](CO)O[C@@H](O[C@H]3[C@H](O)[C@@H](NC(C)=O)C(O)O[C@@H]3CO)[C@@H]2O[C@@H]2O[C@@H](C)[C@@H](O)[C@@H](O)[C@@H]2O)O[C@H](CO)[C@H](O)[C@@H]1O (stereo partly drawn) ; pKd observed: 2.22

Sample CC(=O)N[C@H]1[C@H](O[C@H]2[C@@H](O)[C@@H](CO)O[C@@H](O[C@H]3[C@H](O)[C@@H](O)C(O)O[C@@H]3CO)[C@@H]2O)O[C@H](CO)[C@@H](O[C@@H]2O[C@H](CO)[C@H](O)[C@H](O[C@H]3O[C@H](CO)[C@H](O)[C@H](O)[C@H]3O)[C@H]2O[C@@H]2O[C@@H](C)[C@@H](O)[C@@H](O)[C@@H]2O)[C@@H]1O (stereo partly drawn) [G18, blood group antigen G18] ; pKd observed: 2.48

Sample OC[C@H]1O[C@H](OC[C@H]2O[C@H](OC[C@H]3OC(O)[C@@H](O)[C@@H](O)[C@@H]3O)[C@@H](O)[C@@H](O[C@H]3O[C@H](CO)[C@@H](O)[C@H](O)[C@@H]3O)[C@@H]2O)[C@@H](O)[C@@H](O)[C@@H]1O (stereo partly drawn) ; pKd observed: 2.93
